Dmax at 0.1 µM overview
biological target: Androgen Receptor (AR) (Homo sapiens); test: Measurement of AR protein degradation in VCaP cells by Western blotting; assay type: cell-based; parameters: endogenous in cells; host or cells: VCaP; settings: VCaP, 20 h, read-out: AR degradation in VCaP cells (%)
Please give a number only; it is taken to be in %.

Solved entries (count: 4):
{"COMPOUND": "N#Cc1ccc(N2CCC(C(=O)Nc3ccc(OC4CCN(CC5CCN(c6ccc(NC7CCC(=O)NC7=O)cc6F)CC5)CC4)nn3)CC2)c(F)c1C(F)(F)F (stereo not drawn)", "RESULT_UNITS": "%", "Dmax at 0.1 µM": 95}
{"COMPOUND": "N#Cc1ccc(N2CCC(C(=O)Nc3ccc(OC4CCN(CC5CCN(c6ccc(NC7CCC(=O)NC7=O)cc6F)CC5)CC4)nn3)CC2)c(F)c1Cl (stereo not drawn)", "RESULT_UNITS": "%", "Dmax at 0.1 µM": 100}
{"COMPOUND": "N#Cc1ccc(N2CCC(C(=O)Nc3ccc(OC4CCN(CC5CCN(c6ccc(N[C@H]7CCC(=O)NC7=O)cc6F)CC5)CC4)cn3)CC2)cc1C(F)(F)F", "RESULT_UNITS": "%", "Dmax at 0.1 µM": 99}
{"COMPOUND": "N#Cc1ccc(N2CCC(C(=O)Nc3ccc(OC4CCN(CC5CCN(c6ccc(N[C@H]7CCC(=O)NC7=O)cc6F)CC5)CC4)cn3)CC2)cc1Cl", "RESULT_UNITS": "%", "Dmax at 0.1 µM": 99}

Need Dmax at 0.1 µM, item N#Cc1ccc(N2CCC(C(=O)Nc3ccc(OC4CCN(CC5CCN(c6ccc(NC7CCC(=O)NC7=O)cc6Cl)CC5)CC4)cn3)CC2)cc1C(F)(F)F (stereo not drawn)
97

Need Dmax at 0.1 µM, item N#Cc1ccc(N2CCC(C(=O)Nc3ccc(OC4CCN(CC5CCN(c6ccc(NC7CCC(=O)NC7=O)cc6F)CC5)CC4)nn3)CC2)cc1C(F)(F)F (stereo not drawn)
100

* * *

target: Androgen Receptor (AR) (Homo sapiens, UniProt P10275); assay: Measurement of AR protein degradation in VCaP cells by Western blotting; format: cell-based; parameters: endogenous in cells; host or cells: VCaP; conditions: VCaP, 20 h, read-out: AR degradation in VCaP cells (%)
Sequence (P10275 whole entry): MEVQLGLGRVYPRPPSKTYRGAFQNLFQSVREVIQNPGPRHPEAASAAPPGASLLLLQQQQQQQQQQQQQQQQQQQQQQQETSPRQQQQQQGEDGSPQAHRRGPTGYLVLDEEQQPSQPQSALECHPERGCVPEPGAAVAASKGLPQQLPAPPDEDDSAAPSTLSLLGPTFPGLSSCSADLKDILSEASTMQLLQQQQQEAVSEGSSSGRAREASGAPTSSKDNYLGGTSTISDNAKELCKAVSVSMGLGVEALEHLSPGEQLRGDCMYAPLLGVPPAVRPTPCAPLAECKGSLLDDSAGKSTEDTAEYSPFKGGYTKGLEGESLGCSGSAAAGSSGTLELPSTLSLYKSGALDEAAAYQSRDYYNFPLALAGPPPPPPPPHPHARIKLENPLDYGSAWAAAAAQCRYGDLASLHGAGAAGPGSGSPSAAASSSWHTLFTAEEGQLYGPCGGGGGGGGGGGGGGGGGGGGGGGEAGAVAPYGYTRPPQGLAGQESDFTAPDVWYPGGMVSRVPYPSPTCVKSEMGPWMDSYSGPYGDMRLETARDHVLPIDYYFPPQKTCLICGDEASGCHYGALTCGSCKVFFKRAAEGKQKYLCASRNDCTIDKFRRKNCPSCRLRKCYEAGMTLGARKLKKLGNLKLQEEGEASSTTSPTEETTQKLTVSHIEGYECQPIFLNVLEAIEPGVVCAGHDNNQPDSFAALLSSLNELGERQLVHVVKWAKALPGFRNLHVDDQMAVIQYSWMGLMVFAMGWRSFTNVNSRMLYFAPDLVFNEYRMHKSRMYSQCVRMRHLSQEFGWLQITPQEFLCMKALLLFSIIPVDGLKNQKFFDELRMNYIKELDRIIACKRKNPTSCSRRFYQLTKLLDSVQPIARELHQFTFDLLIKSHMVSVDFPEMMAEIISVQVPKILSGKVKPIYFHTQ
Entries whose Dmax at 0.01 µM is below 90% take Condition met; entries at or above 90% take Condition not met.

Solved entries:
{"MOLECULE": "N#Cc1ccc(N2CCC(C(=O)Nc3ccc(OC4CCN(CC5CCN(c6ccc(NC7CCC(=O)NC7=O)cc6F)CC5)CC4)cn3)CC2)c(F)c1Cl (stereo not drawn) [Example 12]", "CLASS_ASSIGNMENT": "Condition not met"}
{"MOLECULE": "N#Cc1ccc(N2CCC(C(=O)Nc3ccc(OC4CCN(CC5CCN(c6ccc(N[C@H]7CCC(=O)NC7=O)cc6F)CC5)CC4)cn3)CC2)cc1C(F)(F)F [Example 2]", "CLASS_ASSIGNMENT": "Condition met"}
{"MOLECULE": "N#Cc1ccc(N2CCC(C(=O)Nc3ccc(OC4CCN(CC5CCN(c6ccc(NC7CCC(=O)NC7=O)cc6F)CC5)CC4)nn3)CC2)c(F)c1C(F)(F)F (stereo not drawn) [Example 14]", "CLASS_ASSIGNMENT": "Condition met"}
{"MOLECULE": "N#Cc1ccc(N2CCC(C(=O)Nc3ccc(OC4CCN(CC5CCN(c6ccc(N[C@@H]7CCC(=O)NC7=O)cc6F)CC5)CC4)cn3)CC2)cc1Cl [Example 10]", "CLASS_ASSIGNMENT": "Condition met"}

Kindly consider the entry below.
For this molecule, is Dmax at 0.01 µM lower than 90%? N#Cc1ccc(N2CCC(C(=O)Nc3ccc(OC4CCN(CC5CCN(c6ccc(NC7CCC(=O)NC7=O)cc6F)CC5)CC4)cn3)CC2)cc1Cl (stereo not drawn) [Example 8]
Condition not met
